Values were extracted from ChEMBL document CHEMBL4689842.

system: Fibroblast; experiment: Multiplex assay against human fibroblast; format: toxicity, cell-based; conditions: 24 h, 10 µM, compound concentration 10 uM, replicate 1
Hi there, I'd appreciate the recorded Population Tubulin-Different-Phenotype (%) for every entry that follows.
A complete answer gives the number followed by the unit.

Request: I would be grateful if you could share the reported Population Tubulin-Different-Phenotype (%) for CN(C)C(=O)/C(C#N)=C/c1ccc(-c2nc3cnc4[nH]ccc4c3n2C2CCCCC2)o1 .
Result: 64%

Request: Please do the same for Cc1nc(-c2ccc(-c3ccc(C(=O)N4CCc5cc6c(cc54)C4(CCN(C)CC4)CO6)cc3)c(C)c2)no1 [SB-224289] as well.
Result: 66%

Request: Please do the same for CCN(CC)CCCCNc1ncc2cc(-c3cc(OC)cc(OC)c3)c(NC(=O)NC(C)(C)C)nc2n1 [PD-173074] as well.
Result: 5%

Request: Please do the same for Cc1csc2c(N[C@@H](C)CN3CCN(S(=O)(=O)c4ccc(Cl)c(Cl)c4)CC3)ncnc12 as well.
Result: 80%

Request: Please do the same for CN1CCN(CCOc2cc(OC3CCOCC3)c3c(Nc4c(Cl)ccc5c4OCO5)ncnc3c2)CC1 [SARACATINIB] as well.
Result: 89%

Request: Please do the same for CC(C)(O)CNc1ncc(-c2ccnc(Nc3ccnc(Cl)c3)n2)c(CC2CC2)n1 as well.
Result: 89%

Request: Please do the same for C=CC(=O)Nc1cccc(C(=O)Nc2ccc(Nc3cc(-c4[nH]c(SC)nc4C)ccn3)cc2)c1 as well.
Result: 30%

Request: Please do the same for c1cn2cc(-c3ccc4cn[nH]c4c3)nc(Nc3ccc(N4CCOCC4)cc3)c2n1 [ENTOSPLETINIB] as well.
Result: 47%

###

system: U2OS; assay: Multiplex assay against U2OS; type: toxicity, cell-based; conditions: human, 12 h, 10 µM, compound concentration 10 uM, replicate 2
observed_property: Population Normal (%)
Only the number, expressed in %, is required.

Request: I would be grateful if you could share the reported Population Normal (%) for CN1CCN(c2ccc(OC(F)(F)F)c(Nc3ncc4c(n3)-c3c(c(C(N)=O)nn3CCO)CC4)c2)CC1 [ONVANSERTIB] .
Result: 80

Request: Please do the same for Cc1c(-c2ccc(O)cc2)n(Cc2ccc(OCCN3CCCCCC3)cc2)c2ccc(O)cc12 [BAZEDOXIFENE] as well.
Result: 97

Request: Please do the same for Cn1cc(-c2[nH]c3cc(NC(=O)[C@H](N)C4CCCCC4)cc4c3c2C=NNC4=O)cn1 as well.
Result: 90

Request: Please do the same for Cc1nc(-c2cn3c(n2)-c2ccc(-c4cnn(C(C)(C)C(N)=O)c4)cc2OCC3)n(C(C)C)n1 [TASELISIB] as well.
Result: 83

Request: Please do the same for CN(C)c1ncnc(-c2ccc3nc(Nc4cc(CN5CCN(C(=O)CC(F)(F)F)CC5)ccn4)[nH]c3c2)c1Cl [BAY-440] as well.
Result: 91

Request: Please do the same for Cc1cc(C)cc(-c2cnc3cc(Cl)c(-c4cccc(O)c4)cc3c2OCCCN)c1 as well.
Result: 91

Request: Please do the same for COc1cc(-n2cnc3cc(-c4ccc(Cl)cc4)sc3c2=O)ccc1OCCN1CCCC1 as well.
Result: 91

Request: Please do the same for Cc1nc(-c2ccc(-c3ccc(C(=O)N4CCc5cc6c(cc54)C4(CCN(C)CC4)CO6)cc3)c(C)c2)no1 [SB-224289] as well.
Result: 88

Request: Please do the same for COc1cccc([C@@H](C)NCCCc2ccccc2Cl)c1.Cl [TECALCET HYDROCHLORIDE] as well.
Result: 94

###

Hi there, I'd appreciate the recorded Total Cell Count for every entry that follows.
tested on: HEK-293T; test: Multiplex assay against HEK293T; assay type: toxicity, cell-based; conditions: human, 12 h, 10 µM, compound concentration 10 uM, replicate 2
# output: bare number, no unit

Request: I would be grateful if you could share the reported Total Cell Count for OC1(c2ccc(Cl)cc2)CCN(Cc2c[nH]c3ccccc23)CC1 .
Result: 223

Request: Please do the same for c1cn2cc(-c3ccc4cn[nH]c4c3)nc(Nc3ccc(N4CCOCC4)cc3)c2n1 [ENTOSPLETINIB] as well.
Result: 431

Request: Please do the same for CCN(CC)CCCCNc1ncc2cc(-c3cc(OC)cc(OC)c3)c(NC(=O)NC(C)(C)C)nc2n1 [PD-173074] as well.
Result: 1213

Request: Please do the same for Cc1nc(Nc2n[nH]c3c2CN(C(=O)N[C@H](CN(C)C)c2ccccc2)C3(C)C)c2sccc2n1 [PF-03758309] as well.
Result: 1040

Request: Please do the same for CN1CCN(c2ccc(OC(F)(F)F)c(Nc3ncc4c(n3)-c3c(c(C(N)=O)nn3CCO)CC4)c2)CC1 [ONVANSERTIB] as well.
Result: 234

Request: Please do the same for Cc1nc(-c2cn3c(n2)-c2ccc(-c4cnn(C(C)(C)C(N)=O)c4)cc2OCC3)n(C(C)C)n1 [TASELISIB] as well.
Result: 1692

Request: Please do the same for CN1CCCC(n2nc(Cc3ccc(Cl)cc3)c3ccccc3c2=O)CC1.Cl (centres undefined) [AZELASTINE HYDROCHLORIDE] as well.
Result: 231

Request: Please do the same for Cc1nc(-c2ccc(-c3ccc(C(=O)N4CCc5cc6c(cc54)C4(CCN(C)CC4)CO6)cc3)c(C)c2)no1 [SB-224289] as well.
Result: 141

Request: Please do the same for COc1cccc([C@@H](C)NCCCc2ccccc2Cl)c1.Cl [TECALCET HYDROCHLORIDE] as well.
Result: 222

###

tested on: U2OS; experiment: Multiplex assay against U2OS; type: toxicity, cell-based; conditions: human, 24 h, 1 µM, compound concentration 1 uM, replicate 1
Hi there, I'd appreciate the recorded Population Membrane Permeable-Phenotype (%) for every entry that follows.
Only the number, expressed in %, is required.

Request: I would be grateful if you could share the reported Population Membrane Permeable-Phenotype (%) for CC(C)(O)CNc1ncc(-c2ccnc(Nc3ccnc(Cl)c3)n2)c(CC2CC2)n1 .
Result: 5

Request: Please do the same for Cc1csc2c(N[C@@H](C)CN3CCN(S(=O)(=O)c4ccc(Cl)c(Cl)c4)CC3)ncnc12 as well.
Result: 10

Request: Please do the same for Cc1cc(C)cc(-c2cnc3cc(Cl)c(-c4cccc(O)c4)cc3c2OCCCN)c1 as well.
Result: 6

Request: Please do the same for C=CC(=O)Nc1cccc(C(=O)Nc2ccc(Nc3cc(-c4[nH]c(SC)nc4C)ccn3)cc2)c1 as well.
Result: 5

Request: Please do the same for NC(=O)Nc1cc(-c2cccc(F)c2)sc1C(=O)N[C@H]1CCCNC1 as well.
Result: 16

Request: Please do the same for c1cn2cc(-c3ccc4cn[nH]c4c3)nc(Nc3ccc(N4CCOCC4)cc3)c2n1 as well.
Result: 4

Request: Please do the same for CN(C)CC#Cc1ccc(OCCCc2sc(N3CCc4cccc(C(=O)Nc5nc6ccccc6s5)c4C3)nc2C(=O)O)c(F)c1 as well.
Result: 11

Request: Please do the same for Cc1nc(-c2ccc(-c3ccc(C(=O)N4CCc5cc6c(cc54)C4(CCN(C)CC4)CO6)cc3)c(C)c2)no1 as well.
Result: 4

###

system: HEK-293T; assay: Multiplex assay against HEK293T; format: toxicity, cell-based; conditions: human, 24 h, 1 µM, compound concentration 1 uM, replicate 1
Hi there, I'd appreciate the recorded Population Healthy Nuclei (%) for every entry that follows.
Only the number, expressed in %, is required.

Request: I would be grateful if you could share the reported Population Healthy Nuclei (%) for CN1CCN(CCOc2cc(OC3CCOCC3)c3c(Nc4c(Cl)ccc5c4OCO5)ncnc3c2)CC1 [SARACATINIB] .
Result: 36

Request: Please do the same for CN1CCN(c2ccc(OC(F)(F)F)c(Nc3ncc4c(n3)-c3c(c(C(N)=O)nn3CCO)CC4)c2)CC1 [ONVANSERTIB] as well.
Result: 23

Request: Please do the same for Cc1nc(Nc2n[nH]c3c2CN(C(=O)N[C@H](CN(C)C)c2ccccc2)C3(C)C)c2sccc2n1 [PF-03758309] as well.
Result: 76

Request: Please do the same for Cc1[nH]c(/C=C2\C(=O)Nc3ccc(S(=O)(=O)N(C)c4cccc(Cl)c4)cc32)c(C)c1C(=O)N1CCN(C)CC1 as well.
Result: 48

Request: Please do the same for O=C1NCN(c2ccccc2)C12CCN(CCCOc1ccc(F)cc1)CC2 [SPIRAMIDE] as well.
Result: 57

Request: Please do the same for Cc1csc2c(N[C@@H](C)CN3CCN(S(=O)(=O)c4ccc(Cl)c(Cl)c4)CC3)ncnc12 as well.
Result: 21

Request: Please do the same for Cc1nc(-c2ccc(-c3ccc(C(=O)N4CCc5cc6c(cc54)C4(CCN(C)CC4)CO6)cc3)c(C)c2)no1 [SB-224289] as well.
Result: 35

Request: Please do the same for Cc1c(-c2ccc(O)cc2)n(Cc2ccc(OCCN3CCCCCC3)cc2)c2ccc(O)cc12 [BAZEDOXIFENE] as well.
Result: 45

Request: Please do the same for CN1CCCC(n2nc(Cc3ccc(Cl)cc3)c3ccccc3c2=O)CC1.Cl (centres undefined) [AZELASTINE HYDROCHLORIDE] as well.
Result: 37
